- Method Notes: Components of the Cytosolic LPS Sensing Pathway: Gene Identification via Genome-wide siRNA Screen;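 note: robust z of the log signal after scaling to non-targeting control siRNA wells of the plate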
- Applied Conditions: RAW264.7 macrophages, IL-1a HTRF, actives lie on both sides, screened at 100 nM (by protocol), cells primed 5 h with Pam3CSK4 first
Screen size: about 53,000 sequences; about 3,700 (7%) were called active. The full list was thinned out, with actives kept by preference.

{"Seq String": "GCUGAUGAACGAAUACAACTT against Kcnk5", "z-score": 1.25}
{"Seq String": "GGCAUUGGAAGAUGCACAGTT against Scp2", "z-score": 0.431}
{"Seq String": "CGAGCUGAACAGAAUGAUATT against Krt85", "z-score": 0.265}
{"Seq String": "GGUGAAGAAAGCACUGUUUTT against Olfr980", "z-score": 0.0649}
{"Seq String": "GGGCAAAACACUGUCUUUCTT against Tlr5", "z-score": 1.87}
{"Seq String": "GGUGAAAUCCUGAUGUUUUTT against Vps33b", "z-score": 0.301}
